Source of measurements: patent US5466698A

# system.name: [^3 H]Spiroperidol Binding (Rattus norvegicus, UniProt P61169)
# Sequence (P61169 whole entry): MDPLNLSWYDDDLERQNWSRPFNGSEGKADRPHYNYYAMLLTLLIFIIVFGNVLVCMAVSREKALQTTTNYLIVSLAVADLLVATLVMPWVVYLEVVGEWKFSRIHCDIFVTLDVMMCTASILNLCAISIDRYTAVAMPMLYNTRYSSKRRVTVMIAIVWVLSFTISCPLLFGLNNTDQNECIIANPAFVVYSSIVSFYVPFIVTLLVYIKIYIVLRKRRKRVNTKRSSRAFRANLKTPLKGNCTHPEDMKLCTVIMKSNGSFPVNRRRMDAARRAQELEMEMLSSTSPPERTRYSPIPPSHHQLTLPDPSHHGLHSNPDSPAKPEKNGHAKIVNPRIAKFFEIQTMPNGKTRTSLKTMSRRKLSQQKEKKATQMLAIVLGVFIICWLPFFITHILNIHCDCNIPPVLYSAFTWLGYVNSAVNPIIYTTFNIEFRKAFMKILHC
# assay: Inhibition of [^3 H]Spiroperidol Binding, receptor assay
Items are presented alongside their recorded pIC50.
// field semantics: pIC50 = negative decimal log of concentration (mol/L)

Example results:
[Q] Give pIC50 for C(#Cc1cccs1)CCN1CC=C(c2ccccc2)CC1 [Example 16]
[A] 6.94

[Q] Give pIC50 for CS(=O)(=O)Nc1ccc(C#CCCN2CC=C(c3ccccc3)CC2)nc1 [Example 32]
[A] 7.19

[Q] Give pIC50 for C(#Cc1cccnc1)CCCN1CC=C(c2ccccc2)CC1 [Example 7]
[A] 7.11

---
[Q] Give pIC50 for Nc1ccc(C#CCCN2CC=C(c3ccccc3)CC2)cn1 [Example 21]
[A] 7.60

[Q] Give pIC50 for C(#Cc1cnc2ccccc2c1)CCN1CC=C(c2ccccc2)CC1 [Example 1]
[A] 7.39

[Q] Give pIC50 for CCCNc1ccc(C#CCCN2CC=C(c3ccccc3)CC2)nc1 [Example 30]
[A] 6.61

[Q] Give pIC50 for C(#Cc1ccc2[nH]ccc2c1)CCN1CC=C(c2ccccc2)CC1 [Example 15]
[A] 7.11

[Q] Give pIC50 for CN(C)c1ccc(C#CCCN2CC=C(c3ccccc3)CC2)nc1 [Example 13]
[A] 6.72

[Q] Give pIC50 for CNc1ccc(C#CCCN2CC=C(c3ccccc3)CC2)cc1 [Example 27]
[A] 6.89

[Q] Give pIC50 for CNc1ccc(C#CCCN2CC=C(c3ccccc3)CC2)nc1 [Example 26]
[A] 6.86
